# Tested on: MDA-MB-231 multicell spheroids, viability
# run_description: Anticancer human tumor MDA-MB-231 cell line growth inhibition [PI3K];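 further: spheroids exposed to agents for seven days before reading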
# setup_conditions: second compound 1 µM; first compound 10 µM; stronger effect = lower value
# Text: Combinatorial screen of targeted agents with the PI3K inhibitors inavolisib, alpelisib, duvelisib, and copanlisib in multi-cell type tumor spheroids A high-throughput screen of multi-cell type tumor spheroids was designed to identify active combinations of targeted small molecules and PI3K pathway inhibitors. […] Compounds. […] If the clinical Cmax for an agent had not been determined, the highest concentration tested was 10 microM. […]
Mark each entry Met if its viability, T/C sits below 50%, and Not met for all others.

{"compound": "CNC(=O)c1ccc(N2C(=S)N(c3ccc(C#N)c(C(F)(F)F)c3)C(=O)C2(C)C)cc1F + CC(Nc1ccc2c(c1)OCCn1cc(N3C(=O)OCC3C(F)F)nc1-2)C(N)=O", "tgt": "MDA-MB-231 multicell spheroids, viability", "class_label": "Met"}
{"compound": "CC1(C)CCC(CN2CCN(c3ccc(C(=O)NS(=O)(=O)c4ccc(NCC5CCOCC5)c([N+](=O)[O-])c4)c(Oc4cnc5[nH]ccc5c4)c3)CC2)=C(c2ccc(Cl)cc2)C1 + COc1c(OCCCN2CCOCC2)ccc2c3n(c(=NC(=O)c4cnc(N)nc4)nc12)CCN3", "tgt": "MDA-MB-231 multicell spheroids, viability", "class_label": "Met"}
{"compound": "CC1(C)CCC(Nc2ncc(C(F)(F)F)c(-c3c[nH]c4c(P(C)(C)=O)c(C#N)ccc34)n2)CN1 (stereo not given) + Cc1nc(NC(=O)N2CCCC2C(N)=O)sc1-c1ccnc(C(C)(C)C(F)(F)F)c1", "tgt": "MDA-MB-231 multicell spheroids, viability", "class_label": "Met"}
{"compound": "CC(Cn1ccc(-c2ccc(C#N)c(Cl)c2)n1)NC(=O)c1cc(C(C)O)[nH]n1 (stereo not given) + CC(Nc1ncnc2nc[nH]c12)c1cc2cccc(Cl)c2c(=O)n1-c1ccccc1", "tgt": "MDA-MB-231 multicell spheroids, viability", "class_label": "Not met"}

// switching to the query compound
IN: viability, T/C strictly < 50% for this compound? Cn1nccc1Nc1nccc(-c2ccn(C(CO)c3ccc(Cl)c(F)c3)c(=O)c2)n1 (stereo not given) + COc1c(OCCCN2CCOCC2)ccc2c3n(c(=NC(=O)c4cnc(N)nc4)nc12)CCN3
OUT: Met
